# EXPERIMENTAL_SYSTEM: Phosphatidylinositol 4,5-bisphosphate 3-kinase catalytic subunit alpha isoform (Homo sapiens) (UniProt P42336)
# Sequence (P42336 whole entry, canonical isoform): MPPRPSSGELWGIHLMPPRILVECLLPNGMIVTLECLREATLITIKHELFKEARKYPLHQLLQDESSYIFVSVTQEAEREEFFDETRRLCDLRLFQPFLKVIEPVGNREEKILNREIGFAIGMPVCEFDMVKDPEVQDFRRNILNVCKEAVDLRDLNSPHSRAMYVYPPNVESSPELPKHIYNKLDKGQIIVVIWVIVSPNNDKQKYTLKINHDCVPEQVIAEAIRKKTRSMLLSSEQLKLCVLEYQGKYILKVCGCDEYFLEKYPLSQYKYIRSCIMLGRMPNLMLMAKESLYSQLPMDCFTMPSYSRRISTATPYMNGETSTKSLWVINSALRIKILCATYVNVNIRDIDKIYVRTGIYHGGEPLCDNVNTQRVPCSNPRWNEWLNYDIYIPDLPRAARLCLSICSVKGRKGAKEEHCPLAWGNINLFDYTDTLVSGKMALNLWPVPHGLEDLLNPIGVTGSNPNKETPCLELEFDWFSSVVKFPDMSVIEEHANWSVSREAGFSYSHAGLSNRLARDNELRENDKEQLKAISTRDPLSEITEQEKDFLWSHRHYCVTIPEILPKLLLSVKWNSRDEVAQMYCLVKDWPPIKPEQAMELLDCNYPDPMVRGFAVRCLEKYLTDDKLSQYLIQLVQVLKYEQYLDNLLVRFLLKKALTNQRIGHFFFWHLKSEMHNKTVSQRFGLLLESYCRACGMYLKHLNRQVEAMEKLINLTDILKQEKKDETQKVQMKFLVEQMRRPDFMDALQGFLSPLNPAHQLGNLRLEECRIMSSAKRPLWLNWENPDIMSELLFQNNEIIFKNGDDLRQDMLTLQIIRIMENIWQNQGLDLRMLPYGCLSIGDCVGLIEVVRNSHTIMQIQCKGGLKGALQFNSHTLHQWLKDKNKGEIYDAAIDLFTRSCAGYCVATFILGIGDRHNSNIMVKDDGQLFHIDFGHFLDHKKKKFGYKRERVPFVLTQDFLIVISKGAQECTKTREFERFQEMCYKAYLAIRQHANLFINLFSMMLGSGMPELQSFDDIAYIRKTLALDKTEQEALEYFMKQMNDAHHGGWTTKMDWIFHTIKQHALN
# ASSAY_INFO: Inhibition of PI3Kalpha expressed in Escherichia coli or baculovirus-infected insect cells using gamma-[33P]ATP at 400 uM by scintillation proximity assay
inhibition below 20% gives label 0; inhibition at or above it gives label 1.

| STRUCTURE | LABEL_VALUE |
| --- | --- |
| c1n[nH]c2c1CCCC2 | label 1 |
| O=C(Nc1ccccc1)Nc1ccccc1 | label 0 |

q: Please check the record Nc1ncccc1OCc1ccccc1 and state if its inhibition is at or above 20%.
a: label 1

q: Please check the record Nc1[nH]nc2ccccc12 and state if its inhibition is at or above 20%.
a: label 1
